target: DNA (cytosine-5)-methyltransferase 3A (Homo sapiens) (UniProt Q9Y6K1); test: Inhibition of hDNMT3A-c using SAM and oligonucleotide with CpG site at 10 uM incubated for 2 hrs by fluorescence-based assay relative to control
Sequence (Q9Y6K1 whole entry, looked up): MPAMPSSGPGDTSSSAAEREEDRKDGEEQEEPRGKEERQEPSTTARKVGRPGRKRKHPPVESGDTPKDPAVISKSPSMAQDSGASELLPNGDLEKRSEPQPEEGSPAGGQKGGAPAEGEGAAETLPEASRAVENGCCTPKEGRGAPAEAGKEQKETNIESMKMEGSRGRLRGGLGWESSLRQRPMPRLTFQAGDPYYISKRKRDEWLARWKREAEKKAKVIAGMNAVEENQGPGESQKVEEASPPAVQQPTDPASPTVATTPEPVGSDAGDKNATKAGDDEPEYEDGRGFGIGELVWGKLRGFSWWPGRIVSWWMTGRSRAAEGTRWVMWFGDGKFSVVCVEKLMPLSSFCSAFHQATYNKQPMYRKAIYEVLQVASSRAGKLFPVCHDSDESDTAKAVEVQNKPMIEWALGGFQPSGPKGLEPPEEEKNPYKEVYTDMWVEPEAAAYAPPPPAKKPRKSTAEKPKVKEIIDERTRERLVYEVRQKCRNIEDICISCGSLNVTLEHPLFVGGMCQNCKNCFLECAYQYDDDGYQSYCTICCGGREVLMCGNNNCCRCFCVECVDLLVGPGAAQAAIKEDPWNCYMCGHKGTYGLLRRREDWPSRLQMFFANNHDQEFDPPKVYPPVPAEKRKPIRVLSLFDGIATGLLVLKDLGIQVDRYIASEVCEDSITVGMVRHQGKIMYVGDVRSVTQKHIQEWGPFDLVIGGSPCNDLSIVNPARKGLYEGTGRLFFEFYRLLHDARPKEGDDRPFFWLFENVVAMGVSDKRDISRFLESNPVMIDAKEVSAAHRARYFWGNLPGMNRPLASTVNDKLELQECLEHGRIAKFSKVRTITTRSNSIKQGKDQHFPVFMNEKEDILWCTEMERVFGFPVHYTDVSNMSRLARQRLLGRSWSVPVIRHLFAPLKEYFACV
Activity calls are given as the source filed them. No cut-off for these calls is given here.
Readout name: inhibition

{"Molecule": "O=C1c2ccccc2NC(c2ccccc2)C1[N+](=O)[O-] (centres undefined)", "inhibition": "inactive"}
{"Molecule": "COc1cccc(C2Nc3ccccc3C(=O)C2[N+](=O)[O-])c1 (centres undefined)", "inhibition": "inactive"}
{"Molecule": "O=C1c2ccccc2O[C@@H](c2ccccc2)[C@]1(Br)[N+](=O)[O-] (relative stereo)", "inhibition": "69%"}
{"Molecule": "O=C1c2ccccc2O[C@@H](c2ccccc2[N+](=O)[O-])[C@]1(Cl)[N+](=O)[O-] (relative stereo)", "inhibition": "69%"}
{"Molecule": "O=C1c2ccccc2S[C@@H](c2ccccc2F)[C@]1(Br)[N+](=O)[O-] (relative stereo)", "inhibition": "32%"}
{"Molecule": "O=C1c2ccccc2S[C@@H](c2ccccc2F)[C@@]1(Br)[N+](=O)[O-] (relative stereo)", "inhibition": "42%"}
{"Molecule": "O=C1c2ccccc2S[C@@H](c2ccccc2)[C@@]1(Br)[N+](=O)[O-] (relative stereo)", "inhibition": "42%"}
{"Molecule": "O=C1c2ccccc2S[C@H](c2cccc([N+](=O)[O-])c2)[C@@]1(Br)[N+](=O)[O-] (relative stereo)", "inhibition": "27%"}

Record O=C1c2ccccc2NC(c2ccccc2)C1(Br)[N+](=O)[O-] (racemic) , field inhibition: 55%

Record O=C1c2ccccc2S[C@@H](c2ccccc2)[C@]1(Br)[N+](=O)[O-] (relative stereo) , field inhibition: 51%

Record O=C1c2ccccc2S[C@@H](c2cccc(C(F)(F)F)c2)[C@]1(Br)[N+](=O)[O-] (relative stereo) , field inhibition: 34%

Record COc1cccc(C2Nc3ccccc3C(=O)C2(Br)[N+](=O)[O-])c1 (racemic) , field inhibition: 59%

Record O=C1c2ccccc2S[C@@H](c2cccc(C(F)(F)F)c2)[C@@]1(Br)[N+](=O)[O-] (relative stereo) , field inhibition: 35%

Record COc1cccc(C2Nc3ccccc3C(=O)C2(Cl)[N+](=O)[O-])c1 (racemic) , field inhibition: 42%
